B1: RAD54B (parent)
chain: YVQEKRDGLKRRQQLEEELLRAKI

variants of: B1; test: protein stability index of a GFP-peptide fusion (GPS, HEK-293T) (PSI 1-6); higher = more stable; details: c terminus: a fixed tail appended;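 also: lentivirally expressed fusions sorted by FACS into six bins by GFP to DsRed ratio, PSI derived from sequencing read proportions per bin multiplied by bin number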
Consider the following variants and their measured protein stability index readings.
# respond with the number and nothing more

Y1H    3.91
L9A    2.21
L19Y    1.55
Q14M    1.75
Q3K    1.81
A22D    2.29
R6V    2.23
R12W    1.89

q: Query protein stability index for R11H
a: 2.93

q: Supply protein stability index value. Item: R12K
a: 2.47

q: Dear colleague, please send me the reported protein stability index for R11Y when you can.
a: 1.97

q: Given the variant K5H , write its reported protein stability index.
a: 2.26

q: Give a short answer stating reported protein stability index for I24R .
a: 1.68

q: Name the recorded protein stability index of the variant listed here: L9Q
a: 2.26

q: Note down protein stability index recorded for E17R
a: 2.44

q: # return recorded protein stability index for entry R6G
a: 2.39

q: Note protein stability index for the variant shown: E16T
a: 1.83
